The measurements presented in this section are drawn from patent US20190382488A1.

Target: T1, recombinant human CD8 (rhCD8) (human, UniProt P01732 22-182)
T1 construct: Soluble purified recombinant protein; also called purified recombinant human CD8 protein; soluble CD8
T1 sequence (P01732 22-182 limits assumed): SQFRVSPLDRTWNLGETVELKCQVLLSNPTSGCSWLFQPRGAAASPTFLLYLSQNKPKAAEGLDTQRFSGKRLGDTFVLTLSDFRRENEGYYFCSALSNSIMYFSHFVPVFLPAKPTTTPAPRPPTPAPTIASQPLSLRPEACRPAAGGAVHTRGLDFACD
Test: SPR (BIAcore), minibody captured via anti-human IgG Fc, hCD8 analyte at 50 nM
measurementKind: koff (s⁻¹)
One number for each entry, in s⁻¹.

* IAb_Mb1d_CD8 (other, also called variant 1d) DVQITQSPSSLSASVGDRVTITCRTSRSISQYLAWYQQKPGKVPKLLIYSGSTLQSGVPSRFSGSGSGTDFTLTISSLQPEDVATYYCQQHNENPLTFGGGTKVEIKGSTSGGGSGGGSGGGGSSQVQLVQSGAEVKKPGATVKISCKVSGFNIKDTYIHFVQQAPGKGLEWIGRIDPANDNTLYASKFQGKATITADTSTDTAYMELSSLRSEDTAVYYCGRGYGYYVFDHWGQGTLVTVSEPKSCDKTHTCPPCGGGSSGGGSGGQPREPQVYTLPPSRDELTKNQVSLTCLVKGFYPSDIAVEWESNGQPENNYKTTPPVLDSDGSFFLYSKLTVDKSRWQQGNVFSCSVMHEALHNHYTQKSLSLSPGK | 0.002
* IAb_Mb1c_CD8 (other, also called variant 1c) DVQITQSPSSLSASVGDRVTITCRTSRSISQYLAWYQQKPGKVPKLLIYSGSTLQSGVPSRFSGSGSGTDFTLTISSLQPEDVATYYCQQHNENPLTFGGGTKVEIKGSTSGGGSGGGSGGGGSSQVQLVQSGAEVKKPGATVKISCKVSGFNIKDTYIHFVQQAPGKGLEWIGRIDPANDNTLYASKFQGKATITADTSTDTAYMELSSLRSGDTAVYYCGRGYGYYVFDHWGQGTLVTVSSEPKSCDKTHTCPPCGGGSSGGGSGGQPREPQVYTLPPSRDELTKNQVSLTCLVKGFYPSDIAVEWESNGQPENNYKTTPPVLDSDGSFFLYSKLTVDKSRWQQGNVFSCSVMHEALHNHYTQKSLSLSPGK | 0.0018

# context switch: different binder, same koff
What value of koff has been recorded for this entry: IAb_Mb2c_CD8 (other, also called variant 2c) QVQLVQSGAEVKKPGATVKISCKVSGFNIKDTYIHFVQQAPGKGLEWIGRIDPANDNTLYASKFQGKATITADTSTDTAYMELSSLRSGDTAVYYCGRGYGYYVFDHWGQGTLVTVSSGSTSGGGSGGGSGGGGSSDVQITQSPSSLSASVGDRVTITCRTSRSISQYLAWYQQKPGKVPKLLIYSGSTLQSGVPSRFSGSGSGTDFTLTISSLQPEDVATYYCQQHNENPLTFGGGTKVEIKEPKSCDKTHTCPPCGGGSSGGGSGGQPREPQVYTLPPSRDELTKNQVSLTCLVKGFYPSDIAVEWESNGQPENNYKTTPPVLDSDGSFFLYSKLTVDKSRWQQGNVFSCSVMHEALHNHYTQKSLSLSPGK
0.0032
